Data origin: a melting point compilation (Tetko et al.; mined from patent text by program, amines drawn as free bases though some values may be those of a salt)

OBSERVATION_TYPE: melting point

# melting point lookup, item CC1COc2c(C3CC3)c(F)cc3c(=O)c(C(=O)O)cn1c23 (stereo not given)
263 to 265 °C

# melting point lookup, item O=C(O)Cc1cscc1Nc1c(Cl)cccc1Cl
179 to 180 °C

# melting point lookup, item Cc1cccc(NC(=O)NCC(=O)N(CC(=O)N(C)c2ccccc2Cl)c2ccccc2)c1
175 °C

# melting point lookup, item O=C(CC(CSc1nc2ccccc2s1)C(=O)NC1CCCCC1)NC1CCCCC1 (stereo not given)
147 to 149 °C

# melting point lookup, item O=Cc1cc2c3ccccc3ccc2c2sccc12
162 °C

# melting point lookup, item CCCCn1c(=O)c(C(=O)OCC)c(N2CCN(C(=O)c3cccs3)CC2)c2cccnc21
90 to 96 °C

# melting point lookup, item CC(C)(N)CNC(=O)CNC(=O)Cc1ccccc1
150 to 155 °C

# melting point lookup, item Cc1ccc(S(=O)(=O)N2CCC[C@H]2C(=O)N[C@@H](Cc2ccc(NC(=O)C3CCNCC3)cc2)C(=O)O)cc1
125 to 128 °C

# melting point lookup, item CN(c1cccc2cc(C(N)=S)[nH]c12)S(=O)(=O)c1cccs1
239 to 240 °C

# melting point lookup, item CC(Cc1cc(NC(=O)NCc2ccccc2)cc2ccoc12)NC(=O)OC(C)(C)C (stereo not given)
167 to 168 °C

# melting point lookup, item NC(=S)NC[C@H]1CN(c2ccc(N3CCN(C(=O)CO)CC3)c(F)c2)C(=O)O1
209 to 210 °C

# melting point lookup, item O=C1NC(=O)C(c2ccc(-c3ccccc3)o2)O1 (stereo not given)
216 to 218 °C

# melting point lookup, item FC(F)(F)c1cc(I)cc(OCc2ccc3ccccc3c2)c1
65 to 66 °C

# melting point lookup, item CNS(=O)(=O)c1ccc(Oc2ccncc2)cc1
125 to 127 °C

# melting point lookup, item CC(C)(C)NC(=O)Nc1nc2nc(NCCCN3CCOCC3)ncc2cc1-c1c(Cl)cccc1Cl
236 to 240 °C

# melting point lookup, item C=C(C)C(=O)OCCCOc1cc(-n2nc3ccc(OC)cc3n2)c(O)c(C(C)(C)C)c1
114 to 116 °C

# melting point lookup, item COCCOc1ccccc1S(=O)(=O)NC(=O)Nc1nc(C)cc(OC)n1
160 to 162 °C

# melting point lookup, item COc1cccc2c1C=C(C(=O)O)C(C(F)(F)F)O2 (stereo not given)
204 to 207 °C

# melting point lookup, item COC(=O)c1cc(C(=O)N2CCCOCC2)c2cc(Cc3ccc(F)cc3)cnc2c1O
136 to 137 °C

# melting point lookup, item CCOC(=O)C1=C(COCCO)NC(C)=C(C(=O)OC)C1c1cccc(Cl)c1Cl (stereo not given)
120 to 121 °C

# melting point lookup, item Cc1c(C(=O)c2cnn(C)c2OCc2ccccc2)ccc(S(C)(=O)=O)c1C1=NOCC1
152 to 153 °C

# melting point lookup, item Cc1ccc(CCCc2c(C(C)C)nc(C(C)C)c(CO)c2-c2ccc(F)cc2)cc1
79 to 80 °C

# melting point lookup, item COc1c(C(C)(C)C)cc(SC)cc1C(C)(C)C
50 to 52 °C

# melting point lookup, item COC(=O)c1c(F)cc(OCCNC(=O)C2Cc3ccccc3N2S(=O)(=O)c2ccc(-c3cccc(C(F)(F)F)c3)cc2)cc1F (stereo not given)
68 to 71 °C

# melting point lookup, item CS(=O)(=O)OCCCc1ccc(SCc2coc(/C=C/c3ccccc3)n2)cc1
97 to 98 °C

# melting point lookup, item O=C(O)c1cnc(NC(=O)C(CC2CCCC2)c2ccc(Cl)c(Cl)c2)s1 (stereo not given)
269 to 270 °C

# melting point lookup, item COc1ccc(C(=O)Nc2ccc(C(C)=O)cc2)cc1C12CC3CC(CC(C3)C1)C2
200 to 201 °C

# melting point lookup, item CC1(C)CCc2cc(OCc3ccccc3)c(O)c([N+](=O)[O-])c2C1=O
146 to 149 °C

# melting point lookup, item COc1ccccc1C(=O)NN=C(CC(C)C)c1ccncc1
130 °C

# melting point lookup, item C#Cc1cc2nc(O)c(O)nc2cc1[N+](=O)[O-]
> 300 °C

# melting point lookup, item Nc1nc2cc(Br)ccc2c2c1nc1n2CCCO1
273 to 276 °C

# melting point lookup, item CCC(Oc1cccc(C(F)(F)F)c1Cl)C1=NCCN1 (stereo not given)
102 to 103 °C

# melting point lookup, item CCCOc1cc2ccccc2c2c(=O)c(-c3ccoc3)c[nH]c12
252 to 254 °C

# melting point lookup, item CCc1ccc2c(c1)C(c1ccccc1F)=NCc1cnc(C)n1-2
152 to 154 °C

# melting point lookup, item CC1(C)CCC(C)(C)c2cc(C(N)COc3ccc(C(=O)O)c(O)c3)ccc21 (stereo not given)
241 to 242 °C

# melting point lookup, item CC1(C)CC(=O)c2cc(C#N)c(NC3CCCC3)nc2C1
154 to 156 °C

# melting point lookup, item CCCCCCCOc1ccc(CNc2ccc(C(=O)O)cc2)cc1
148 to 152 °C

# melting point lookup, item C=CCNC(=O)C1CCc2ccccc2O1 (stereo not given)
76 to 77 °C

# melting point lookup, item CCCSc1ncc(C(=O)N[C@@H](Cc2c[nH]cn2)C(=O)O)n1Cc1ccccc1Cl
130 to 132 °C

# melting point lookup, item CCCn1c(=O)cc(Cl)n(CC#N)c1=O
83 to 84 °C
